src = PubChem BioAssay (NCI)

Tested on: SNB-75 CNS
test-method-notes: NCI tumour cell line growth inhibition, 48 h
Task for the reader: assign each of the following compounds its reported TGI.

Past entries and their recorded results:
compound: CC(C)(C)c1ccc(OCC(=O)O)c(Cl)c1
result: > 100 µM
--
compound: O=C(CSC(c1ccccc1)c1ccccc1)N/N=C/c1ccco1
result: 58.1 µM
--
compound: [F][Sn]([F])([c]1ccccc1)[c]1ccccc1
result: 4.61 µM
--
compound: O=C(N/N=C/c1c(Cl)cccc1Cl)c1ccc(C(F)(F)F)nc1Nc1cccc(C(F)(F)F)c1
result: 54.6 µM
--
compound: O=c1c2ccccc2nc(-c2ccccc2)n1NC(=S)Nc1ccccc1
result: > 100 µM
--
compound: O=C1CCc2ccc3c(c21)CC1(Cc2ccccc2C1)C3
result: > 100 µM
--
compound: CC1=C(c2cc(C(=O)Nc3ccc(Cl)cc3)nc(=S)[nH]2)Sc2ccccc2N1
result: > 100 µM
--
compound: O=C(O)c1c2c(cc3c1CC1(Cc4ccccc4C1=O)C3)CCC2 (stereo not given)
result: > 94.6 µM
--
compound: COC(=O)C1(Cc2ccc3c(c2)CCC3)Cc2cc3c(cc2C1)CCC3
result: > 100 µM
--
compound: CC1=C[C@@H](C)C[C@]2(C)CC[C@H](O2)[C@]23CC[C@](C(=O)O)(C[C@H](O2)[C@@H]2O[C@@](C)(CC2=O)[C@@H](O)[C@H]2CC[C@@]4(CCC[C@@H](O4)[C@H](C)C(=O)O[C@H]4C[C@H]([C@]5(O)OCC[C@H](C)[C@@H]5O)O[C@H]4C=C1)O2)O3
result: > 6.85 µM

Below are some compounds; for each one, tell me its TGI.
1. C=C(C)[C@@]1(O[Si](C)(C)C)CCCC[C@@H]1CC(Sc1ccccc1)Sc1ccccc1
2. Cc1cc(C)n(-c2nnc3n2N=C(c2ccc(-c4ccccc4)cc2)CS3)n1
3. O=C(Nc1ccc(Cl)c(Cl)c1)Nc1ccccc1O
4. C[C@]12CC[C@H](O)C=C1CC[C@@H]1[C@@H]2CC[C@]2(C)C(c3ccc(=O)oc3)CC[C@]12O (stereo not given in full)
5. Cc1ccc(-c2c(C#N)c(-c3ccc([N+](=O)[O-])cc3)c(C#N)c(=O)n2NS(=O)(=O)c2ccccc2)cc1
6. c1csc(-c2c3ccc(=[N+]4CCCCC4)cc-3oc3cc(N4CCCCC4)ccc23)c1
7. CC(C)(C)OC(=O)n1c(-c2ccccc2F)cc(=O)c2cc3c(cc21)OCO3
8. COc1cc(C(=O)C/C(CCC(=O)Nc2ccc(Cl)cc2Cl)=N/NC(=O)C(=O)NN)ccc1O

1: 25.7 µM; 2: 54.8 µM; 3: 50.5 µM; 4: 0.0736 µM; 5: > 100 µM; 6: 0.508 µM; 7: > 100 µM; 8: > 100 µM

# batch size: 4; output TGI per entry
1. O=C1c2cccc(NCCNCCO)c2C(=O)c2cccc(NCCNCCO)c21
2. CC(=O)OC1C2CCC1C1C2C2(Cl)C(Cl)=C(Cl)C1(Cl)C2(Cl)Cl (stereo not given)
3. CCN(CC)CCNC(=O)c1ccc(C)c(OCc2ccccc2)c1[N+](=O)[O-]
4. CC1C(=O)OC2CC[N+]3([O-])CC=C(COC(=O)C(C)(O)C1(C)O)C23 (stereo not given)

["3.03 µM", "29.8 µM", "67.9 µM", "> 100 µM"]

Your task in this section: give TGI for each listed record.
1. CCOC(CN(C)C(=S)Nc1cccc2ccccc12)OCC
2. O=C(OCc1ccc2c(Cl)cc(Cl)c(O)c2n1)N1CCN(C(=O)c2cc3cc(F)ccc3[nH]2)CC1
3. CC/C(Cl)=N\OC(=O)Nc1ccc(F)c([N+](=O)[O-])c1
4. COC(=O)C1=C(O)C(C(=O)OC)[C@@]2(O)[C@@H](C(=O)OC)[C@H](C)[C@@H](C)[C@@H]1[C@@H]2C(=O)OC (stereo not given in full)
5. S=C1CC(c2ccccc2)Sc2ccc(Cl)cc2N1 (stereo not given)
6. CCOC(=O)Cn1c(=O)n(C)c(=O)c2c1ncn2Cc1ccccc1

["> 10 µM", "> 100 µM", "38.9 µM", "> 100 µM", "> 100 µM", "> 100 µM"]

Items follow; give TGI for each.
1. Nc1ccccc1SC1CC(=O)N(c2ccc(Cl)c(Cl)c2)C1=O (stereo not given)
2. COC(=O)[C@H](Cc1ccccc1)NC(=O)c1ccc(CNC(=O)/C=C/c2cccc(Oc3ccccc3)c2)cc1
3. COP(=O)(OC)C12CCOCCN1c1ccccc1C2=O (stereo not given)
4. CCCCC/C(C=O)=C\c1ccccc1
5. CN1CCN(c2ccc(Nc3ncc4cc(C#N)c(=O)n(C5CCCC5)c4n3)cc2)CC1
6. COc1ccc(/C=N/N2C(=O)c3c(N)c(C#N)c(-c4ccccc4)c(-c4ccccc4)c3C2=O)cc1
7. NS(=O)(=O)c1ccc(NC(NC(=O)C(C(F)(F)F)C(F)(F)F)(C(F)(F)F)C(F)(F)F)cc1

["34.4 µM", "> 100 µM", "> 100 µM", "> 100 µM", "3.8 µM", "> 100 µM", "> 100 µM"]

Working through the 5 compounds below one at a time, give TGI for each.
1. CCOC(=O)/C(=C/c1cccc(C#N)c1)N(CC)CC
2. Nc1ccc2[nH]cc(CCC(=O)O)c2c1
3. CC(C)CCn1nc(N)c2nc3ccccc3nc21
4. COc1cc(CC(C)N)ccc1O (stereo not given)
5. CC12CC1C(c1cccc([N+](=O)[O-])c1)(c1cccc([N+](=O)[O-])c1)N=N2 (stereo not given)

> 100 µM
> 100 µM
> 100 µM
> 100 µM
> 100 µM

----------
Test system: HCC-2998 colon
test-method-notes: NCI tumour cell line growth inhibition, 48 h
Where a SMILES comes first, the peptide text is derived from it. The star is where a group is joined. Bn = c1ccc(C*)cc1
metric-name: TGI

Sample records with TGI:
compound: COC(=O)C1=C(O)C(C(=O)OC)[C@@]2(O)[C@@H](C(=O)OC)[C@H](C)[C@@H](C)[C@@H]1[C@@H]2C(=O)OC (stereo not given in full)
result: > 100 µM
//
compound: CC1C(=O)OC2CC[N+]3([O-])CC=C(COC(=O)C(C)(O)C1(C)O)C23 (stereo not given)
result: > 100 µM
//
compound: CCCCCCCCCCN1CCC(N2CCCCC2)CC1
result: 5.9 µM
//
compound: O=C(N/N=C/c1c(Cl)cccc1Cl)c1ccc(C(F)(F)F)nc1Nc1cccc(C(F)(F)F)c1
result: > 100 µM

The record that follows has no TGI shown yet.
TGI reading for COC(=O)C(CC(C)C)NC(=O)C(N)Cc1ccc(OCc2ccccc2)cc1 (stereo not given) (H-Tyr(Bn)-Leu-OMe; configuration not given here) : > 10 µM

----------
Tested on: NCI-H226 lung
test-method-notes: NCI tumour cell line growth inhibition, 48 h
metric-name: GI50

Worked examples follow.
compound: S=C1SC2=Nc3ccccc3CN2C2=NCCN12
GI50: > 100 µM
--
compound: CCCCCc1ccc(S(=O)(=O)Nc2cc(-c3csc(NC(C)=O)n3)ccc2N2CCN(C)CC2)cc1
GI50: 4.94 µM

Provide GI50 values for the following items, in order.
1. COC(=O)c1cc(/C=C/c2ccc(S(N)(=O)=O)cc2)ccc1O
2. Cn1c(=O)c2c(ncn2CC(=O)Nc2ccc(-c3ccccc3)nn2)n(C)c1=O
3. CCN1C(=O)N(CC)C2Nn3c(s/c(=C4\C(=O)N(C)c5ccccc54)c3=O)=NC21 (centres undefined)
4. COc1ccc(-c2csc(NC(=O)CSc3nc(C)c(-c4ccccc4)n3Nc3ccccc3)n2)cc1
5. [F][Sn]([F])([c]1ccccc1)[c]1ccccc1
6. O=C(CSC(c1ccccc1)c1ccccc1)N/N=C/c1ccco1
7. COC(C(=O)[C@@H](O)[C@@H](C)O)[C@@H]1Cc2cc3cc(O[C@H]4C[C@@H](O[C@H]5C[C@@H](O)[C@H](O)C(C)O5)[C@H](O)C(C)O4)c(C)c(O)c3c(O)c2C(=O)[C@H]1O[C@H]1C[C@@H](O[C@H]2C[C@@H](O[C@H]3C[C@@H](O)[C@H](OC)C(C)O3)[C@@H](O)C(C)O2)[C@H](O)C(C)O1 (some centres undefined)

1: 21.4 µM; 2: > 100 µM; 3: > 100 µM; 4: > 100 µM; 5: 2.11 µM; 6: 3 µM; 7: 0.0209 µM

----------
For each of the molecules below, state its TGI.
System: XF 498 CNS
test-method-notes: NCI tumour cell line growth inhibition, 48 h

molecule: COC(=O)c1cccc2cccc(C(=O)Nc3ccc(Cl)cc3)c12
TGI: > 100 µM

molecule: CC1=C(C(=O)NNS(=O)(=O)c2ccc(C)cc2)CC(C(=O)NNS(=O)(=O)c2ccc(C)cc2)=C(C)N1
TGI: > 100 µM

molecule: CC(=O)OCCOCNC(=S)N/N=C/c1ccc(Br)s1
TGI: > 100 µM

molecule: O=C(O)CN(c1ccccc1)S(=O)(=O)c1ccc([N+](=O)[O-])cc1
TGI: > 100 µM

molecule: N#CC(C(=O)CCC(=O)Nc1cccc(C(F)(F)F)c1)c1ccc(Cl)cc1 (stereo unspecified)
TGI: > 100 µM

List reported TGI for each of these molecules:
1. CCOc1ccccc1NC(=O)C(=O)Cc1nc2ccccc2s1
2. CCN(CC)CCNC(=O)c1ccc(C)c(OCc2ccccc2)c1[N+](=O)[O-]
3. CCOC(=O)/C(=C/c1cccc(C#N)c1)N(CC)CC
4. CC(C)(C)OC(=O)N1N=NC2C1C1CC(OCc3ccccc3)(OCc3ccccc3)C2O1 (stereo unspecified)
5. C[C@]12CC[C@H](O)C=C1CC[C@@H]1[C@@H]2CC[C@]2(C)C(c3ccc(=O)oc3)CC[C@]12O (stereo partly specified)

["> 100 µM", "39.7 µM", "> 100 µM", "30.3 µM", "0.0505 µM"]

Need TGI for each of these molecules.
1. Cc1cc(C(C)(C)C)cc(Cc2cc(C(C)(C)C)cc(Cc3cc(C(C)(C)C)cc(C)c3O)c2O)c1O
2. O=C(O)CSc1n[nH]c(Cc2ccccc2)n1
3. CCOC(=O)Cn1c(=O)n(C)c(=O)c2c1ncn2Cc1ccccc1

1: 4.13 µM; 2: > 100 µM; 3: > 100 µM
